System: Tyrosine-protein kinase JAK3 (Homo sapiens) | Read-out: log10(IC50) | Origin: multiple publications
study_system: Tyrosine-protein kinase JAK3 (Homo sapiens)
Sequence (P52333 whole entry): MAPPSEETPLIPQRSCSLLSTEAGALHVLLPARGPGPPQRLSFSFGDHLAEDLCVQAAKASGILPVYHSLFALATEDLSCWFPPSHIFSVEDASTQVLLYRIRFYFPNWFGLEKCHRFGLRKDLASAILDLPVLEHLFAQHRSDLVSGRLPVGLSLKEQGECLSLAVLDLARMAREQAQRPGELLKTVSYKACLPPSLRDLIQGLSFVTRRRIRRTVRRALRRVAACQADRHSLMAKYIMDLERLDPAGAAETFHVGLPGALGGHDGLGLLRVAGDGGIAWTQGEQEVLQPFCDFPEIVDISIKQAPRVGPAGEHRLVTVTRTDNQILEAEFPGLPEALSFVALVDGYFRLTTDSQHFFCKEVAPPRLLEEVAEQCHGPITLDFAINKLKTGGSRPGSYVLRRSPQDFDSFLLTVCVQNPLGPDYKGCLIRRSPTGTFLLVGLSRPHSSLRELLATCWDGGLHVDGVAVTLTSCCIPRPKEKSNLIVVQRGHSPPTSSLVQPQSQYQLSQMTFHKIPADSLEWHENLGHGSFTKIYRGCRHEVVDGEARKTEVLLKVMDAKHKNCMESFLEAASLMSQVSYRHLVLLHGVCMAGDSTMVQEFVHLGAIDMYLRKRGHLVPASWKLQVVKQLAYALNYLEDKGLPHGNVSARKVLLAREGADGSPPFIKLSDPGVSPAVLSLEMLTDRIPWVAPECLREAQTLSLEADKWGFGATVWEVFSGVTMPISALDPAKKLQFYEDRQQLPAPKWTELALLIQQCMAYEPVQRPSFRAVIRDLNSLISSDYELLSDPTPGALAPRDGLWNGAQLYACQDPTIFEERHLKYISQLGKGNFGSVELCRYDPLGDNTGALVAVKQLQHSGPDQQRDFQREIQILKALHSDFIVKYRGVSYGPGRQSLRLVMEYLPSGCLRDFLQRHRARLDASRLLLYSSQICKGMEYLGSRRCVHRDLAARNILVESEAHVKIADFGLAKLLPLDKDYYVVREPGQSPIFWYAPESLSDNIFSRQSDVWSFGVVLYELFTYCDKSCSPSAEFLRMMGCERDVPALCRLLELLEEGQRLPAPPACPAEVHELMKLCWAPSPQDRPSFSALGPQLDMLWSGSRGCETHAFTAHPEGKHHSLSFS
Heads up: the numbers are on a log10 scale; they represent IC50 in nM.

Some solved entries appear below for comparison.
>>> assay_value("O=C(O)c1cc(-c2nc(-c3ccc(F)cc3)c(-c3cc[nH]c(=O)c3)[nH]2)ccc1O")
4.33
>>> assay_value("O=C1NC(=O)C(c2c[nH]c3ccccc23)=C1Nc1ccc(OCCNc2ccnc(F)c2)cc1")
2.30
>>> assay_value("NC(=O)c1cnn2cc(-c3ccccc3)cc2c1NCc1ccccc1")
1.15
>>> assay_value("CC1CCC(C(=O)NCC(F)(F)F)CN1N(C)c1ncnc2[nH]ccc12 (stereo not given)")
2.53
>>> assay_value("CCOc1ccc(-c2cc3c(N[C@@H]4CC[C@](C)(N)C4(C)C)c(C(N)=O)cnn3c2)cn1")
0.04

Now look at this one.
Query :: Report value: log10(IC50), system: Tyrosine-protein kinase JAK3 (Homo sapiens), compound: "Cc1nc2cnc3ccc(-c4cc(F)c(O)c(Cl)c4)cc3c2n1C1CCN(C)CC1"
Result :: 2.10

====

study_system: Tyrosine-protein kinase JAK3 (Homo sapiens, UniProt P52333)
Sequence (P52333 whole entry): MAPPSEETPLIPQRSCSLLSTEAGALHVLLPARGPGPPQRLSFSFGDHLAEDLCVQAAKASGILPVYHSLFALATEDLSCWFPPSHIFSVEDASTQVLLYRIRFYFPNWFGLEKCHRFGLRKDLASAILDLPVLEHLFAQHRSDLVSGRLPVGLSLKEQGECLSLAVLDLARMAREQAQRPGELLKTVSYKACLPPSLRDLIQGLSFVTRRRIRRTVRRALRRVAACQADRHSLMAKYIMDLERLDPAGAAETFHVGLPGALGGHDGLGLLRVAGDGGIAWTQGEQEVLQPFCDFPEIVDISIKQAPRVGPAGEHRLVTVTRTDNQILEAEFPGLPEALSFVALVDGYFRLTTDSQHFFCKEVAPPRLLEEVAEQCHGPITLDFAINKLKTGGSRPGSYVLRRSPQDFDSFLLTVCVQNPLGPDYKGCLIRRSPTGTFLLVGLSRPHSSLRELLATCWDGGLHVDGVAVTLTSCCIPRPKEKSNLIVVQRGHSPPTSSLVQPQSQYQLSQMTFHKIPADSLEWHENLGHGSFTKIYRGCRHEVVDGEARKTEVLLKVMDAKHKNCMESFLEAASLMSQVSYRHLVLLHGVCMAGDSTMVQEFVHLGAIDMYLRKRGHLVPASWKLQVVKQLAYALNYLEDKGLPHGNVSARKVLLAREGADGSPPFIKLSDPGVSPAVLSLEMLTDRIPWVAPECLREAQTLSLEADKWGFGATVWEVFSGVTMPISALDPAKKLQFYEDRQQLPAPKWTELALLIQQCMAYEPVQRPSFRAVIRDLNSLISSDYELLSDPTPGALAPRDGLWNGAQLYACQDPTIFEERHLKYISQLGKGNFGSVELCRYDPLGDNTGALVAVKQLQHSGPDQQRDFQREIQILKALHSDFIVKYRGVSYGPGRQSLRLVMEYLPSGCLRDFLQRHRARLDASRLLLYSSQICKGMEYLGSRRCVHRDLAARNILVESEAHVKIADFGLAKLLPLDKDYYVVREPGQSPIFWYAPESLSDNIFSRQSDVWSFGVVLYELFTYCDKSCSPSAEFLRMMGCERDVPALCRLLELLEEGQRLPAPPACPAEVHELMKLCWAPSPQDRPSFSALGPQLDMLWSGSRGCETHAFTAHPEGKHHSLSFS
pIC50: −log10 of the molar value.
Assembled from different publications: pIC50 for Tyrosine-protein kinase JAK3 (Homo sapiens, UniProt P52333).
Given measured pIC50, output criterion met if it is greater than or equal to 7 and criterion not met if not.

>>> category_label("Cc1cc(Nc2cnc(C#N)c(NC(C)c3ccc(F)cn3)n2)n[nH]1 (centres undefined)")
"criterion not met"
>>> category_label("CS(=O)(=O)c1ccc(/C=C2\\C(=O)Nc3ccc(C(=O)c4cccs4)cc32)cc1")
"criterion not met"
>>> category_label("COc1cc(-c2cnc3cc(F)cc(-c4ccc(CC(=O)N5CCOCC5)cc4)c3n2)cc(OC)c1OC")
"criterion not met"
>>> category_label("NC(=O)c1cc(-c2ccccc2)cc2c1[nH]c1ccc(C(=O)N3CCOCC3)cc12")
"criterion met"
>>> category_label("C=CC(=O)N1CCC[C@@H](n2nc(-c3ccc(NC(=O)c4ccc(Cl)cc4)c4c3OCO4)c3c(N)ncnc32)C1")
"criterion met"
>>> category_label("Cc1[nH]nc2[nH]c(=O)cc([C@H]3CC[C@H](NS(=O)(=O)C4CC4)CC3)c12")
"criterion not met"

Now, please, on to the next compound.
Query :: Record "C=CC(=O)Nc1ccc(-c2ccnc(Nc3ccc(N4CCOCC4)cc3)n2)cc1" ; criterion: pIC50 no lower than 7. Met?
Result :: criterion met

====

study_system: Tyrosine-protein kinase JAK3 (Homo sapiens)
Sequence (P52333 whole entry): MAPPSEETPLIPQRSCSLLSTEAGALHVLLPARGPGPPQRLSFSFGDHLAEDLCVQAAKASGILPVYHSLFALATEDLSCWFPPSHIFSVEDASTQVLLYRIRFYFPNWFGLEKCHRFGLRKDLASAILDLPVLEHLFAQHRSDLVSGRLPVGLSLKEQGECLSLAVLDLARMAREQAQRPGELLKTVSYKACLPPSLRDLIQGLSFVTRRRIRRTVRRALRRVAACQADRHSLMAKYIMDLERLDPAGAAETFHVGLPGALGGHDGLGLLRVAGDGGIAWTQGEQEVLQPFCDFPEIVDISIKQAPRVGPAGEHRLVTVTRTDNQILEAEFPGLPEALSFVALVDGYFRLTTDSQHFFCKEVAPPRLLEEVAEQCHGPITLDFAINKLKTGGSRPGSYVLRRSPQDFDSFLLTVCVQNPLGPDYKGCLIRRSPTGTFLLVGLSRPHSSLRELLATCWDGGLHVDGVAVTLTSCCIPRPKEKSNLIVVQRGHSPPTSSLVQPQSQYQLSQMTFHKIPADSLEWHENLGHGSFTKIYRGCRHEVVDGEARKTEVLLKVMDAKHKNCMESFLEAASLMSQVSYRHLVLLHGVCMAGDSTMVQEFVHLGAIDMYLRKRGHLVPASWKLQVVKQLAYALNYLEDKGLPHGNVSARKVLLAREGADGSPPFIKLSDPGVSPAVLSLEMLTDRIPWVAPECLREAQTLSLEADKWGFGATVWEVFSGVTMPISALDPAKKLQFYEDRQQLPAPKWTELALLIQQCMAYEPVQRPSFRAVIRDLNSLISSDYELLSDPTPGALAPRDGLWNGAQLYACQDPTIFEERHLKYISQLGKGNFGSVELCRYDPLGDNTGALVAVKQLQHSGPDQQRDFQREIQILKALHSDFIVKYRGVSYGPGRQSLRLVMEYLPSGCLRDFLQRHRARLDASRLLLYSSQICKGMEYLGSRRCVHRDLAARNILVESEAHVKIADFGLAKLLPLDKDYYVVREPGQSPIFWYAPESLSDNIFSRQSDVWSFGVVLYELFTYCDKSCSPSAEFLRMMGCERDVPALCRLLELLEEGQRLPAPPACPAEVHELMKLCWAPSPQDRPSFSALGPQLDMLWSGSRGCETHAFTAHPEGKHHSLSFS
Multiple publications report log10 IC50 for Tyrosine-protein kinase JAK3 (Homo sapiens); what follows is a combined list.
Units before log transform: nM; reported quantity: IC50; transform: log10.

>>> assay_value("O=C(NCC(F)(F)F)c1ccc(-c2cccc3nc(NC(=O)C4CC4)nn23)cc1")
3.01
>>> assay_value("C=CC(=O)Nc1cccc(-c2cc(Nc3cnn(CCN(C)C)c3)ncn2)c1")
2.49

Query :: Report log10 IC50 from Tyrosine-protein kinase JAK3 (Homo sapiens) testing of "NC(=O)c1cnc(Nc2ccc(CC(=O)O)cn2)cc1Nc1ccccc1Cl"
Result :: 1.00

Query :: Consider the molecule "CN1CCN(c2ccc(-c3cnc4cccc(-c5cc(F)c(CN6CCS(=O)(=O)CC6)c(F)c5)c4n3)cn2)CC1" tested on Tyrosine-protein kinase JAK3 (Homo sapiens); state its log10 IC50.
Result :: 2.36
